Where do the numbers come from? From PubChem BioAssay (NCATS).

- Test system: OV90
- experimentSummary: Primary qHTS to identify gynecologic anti-cancer compounds using libraries of approved drugs and bioactive compounds (AID 1345084); note: % is set by controls: 0 for no effect and ±100 for the full control effect; nearly all actives have a fitted effect of over 55% in size
- conditionInfo: Gynecologic cancer cell panel viability, ATPlite luminescence, 48 h; series mostly up to 57.5 µM
Records with an inconclusive call do not appear. The source made the active and inactive calls. Calls come from the whole dose curve; as a rule, active = well fitted cell-killing curve with a large enough effect; inconclusive = small, poorly fitted or top-dose-only effect, or effect the other way; inactive = flat fitted curve, though single readings scatter.
quantityMeasured: activity change, negative = cytotoxicity

- molecule: "Cc1c(C)c(NCC(=O)N(C)C2CCN(Cc3ccc(C(N)=O)cc3)CC2)c(C)c(C)c1N"
  quantityMeasured: "activity change, negative = cytotoxicity"
  result: "inactive"
- molecule: "CC(=O)O[C@@H]1[C@H](O[C@@H]2OC[C@](O)(CO)[C@H]2O)[C@@H](O[C@@H]2O[C@@H](C)[C@H](O)[C@@H](O[C@@H]3O[C@H](CO)[C@@H](O)[C@H](O)[C@H]3O)[C@H]2O)[C@H](OC(=O)[C@]23CCC(C)(C)C[C@H]2C2=CCC4[C@@]5(C)C[C@H](O)[C@H](O[C@@H]6O[C@H](C(=O)O)[C@@H](O)[C@H](O)[C@H]6O)[C@@](C)(C(=O)O)C5CC[C@@]4(C)[C@]2(C)CC3)O[C@@H]1C (stereo partly drawn)"
  quantityMeasured: "activity change, negative = cytotoxicity"
  result: "0.0108% [at 6.55 µM] (inactive)"
- molecule: "CC1CCC2C(C)(C)C(O)C(O)CC2(C)C12Cc1c(O)cc(CO)c(C=O)c1O2 (stereo not drawn)"
  quantityMeasured: "activity change, negative = cytotoxicity"
  result: "inactive"

----------
- System: C33A
- experimentSummary: Primary qHTS to identify gynecologic anti-cancer compounds using libraries of approved drugs and bioactive compounds (AID 1345084); note: % is set by controls: 0 for no effect and ±100 for the full control effect; nearly all actives have a fitted effect of over 55% in size
- conditionInfo: Gynecologic cancer cell panel viability, ATPlite luminescence, 48 h; series mostly up to 57.5 µM
Results filed as inconclusive are left out. Active and inactive are the calls of the source. Calls come from the whole dose curve; as a rule, active = well fitted cell-killing curve with a large enough effect; inconclusive = small, poorly fitted or top-dose-only effect, or effect the other way; inactive = flat fitted curve, though single readings scatter.
quantityMeasured: activity change, negative = cytotoxicity

- compound: "C[C@@H]1O[C@@H](O[C@@H]2[C@@H](O)[C@H](O[C@@H]3[C@@H](O)[C@@H](O)[C@H](O[C@H]4[C@H](OC(=O)[C@]56CCC(C)(C)C[C@H]5C5=CCC7[C@@]8(C)C[C@H](O)[C@H](O[C@@H]9O[C@H](C(=O)O)[C@@H](O)[C@H](O)[C@H]9O)[C@@](C)(CO)C8[C@H](O)C[C@@]7(C)[C@]5(C)C[C@H]6O)O[C@@H](CO)[C@@H]4O)O[C@H]3C)OC[C@H]2O)[C@H](O)[C@H](O)[C@H]1O (stereo partly specified)"
  measuredTarget: "C33A"
  result: "7.96% [at 6.55 µM] (inactive)"
- compound: "COC(=O)C1=COC(OC2OC(CO)C(O)C(O)C2O)C2C(C)C(OC(C)=O)C(OC(=O)c3ccccc3)C12 (stereo unspecified)"
  measuredTarget: "C33A"
  result: "inactive"
- compound: "NC(N)=NCCC[C@H](NC(=O)c1sccc1NS(=O)(=O)c1cccc2nsnc12)C(=O)O"
  measuredTarget: "C33A"
  result: "inactive"
- compound: "COc1ccc(/C=C/C(=O)O[C@@H]2[C@@H](O[C@@H]3O[C@H](CO)[C@@H](O)[C@H](O)[C@H]3O)[C@@H](O)[C@H](O[C@H]3C4C=CO[C@@H](O[C@@H]5O[C@H](CO)[C@@H](O)[C@H](O)[C@H]5O)C4[C@@]4(CO)O[C@@H]34)O[C@H]2C)cc1 (stereo partly specified)"
  measuredTarget: "C33A"
  result: "-3.09% [at 11.6 µM] (inactive)"
- compound: "COc1ccc(CCC(=O)O)c(O[C@@H]2O[C@H](CO)[C@@H](O)[C@H](O)[C@H]2O)c1"
  measuredTarget: "C33A"
  result: "inactive"

Now consider the entry below.
In: # lookup: activity change, negative = cytotoxicity of C=CCC/C=C/C#CCCCCCCCC[C@H]1C(=O)O[C@H](C)[C@@H]1O
Out: inactive
